ASSAY SYSTEM: Hematopoietic prostaglandin D synthase (Homo sapiens)
Sequence (O60760 whole entry): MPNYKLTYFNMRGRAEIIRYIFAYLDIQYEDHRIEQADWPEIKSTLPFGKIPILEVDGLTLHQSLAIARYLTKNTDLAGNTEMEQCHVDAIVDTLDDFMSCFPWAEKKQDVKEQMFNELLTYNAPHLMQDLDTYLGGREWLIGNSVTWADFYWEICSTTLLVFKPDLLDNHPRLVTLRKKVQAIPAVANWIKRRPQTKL
TEST METHOD NOTES: Inhibition of H-PGDS (unknown origin) using fluorescent probe by competition binding assay

COMPOUND	ASSAY SYSTEM	UNIT STRING	IC50
CN1C(=O)CCC(N2C(=O)c3cccc(N4CCN(C(=O)C5CCN(c6ccc(NC(=O)c7cnc(Oc8ccccc8)nc7)cc6)CC5)CC4)c3C2=O)C1=O (configuration not stated)	Hematopoietic prostaglandin D synthase (Homo sapiens)	nM	140
O=C1CCC(N2C(=O)c3cccc(N4CCN(C(=O)C5CCN(c6ccc(NC(=O)c7cnc(Oc8ccccc8)nc7)cc6)CC5)CC4)c3C2=O)C(=O)N1 (configuration not stated)	Hematopoietic prostaglandin D synthase (Homo sapiens)	nM	170
